biological target: 5-hydroxytryptamine receptor 1D (Homo sapiens, UniProt P28221); assay: Adenyl cyclase activity was expressed as percent forskolin response against 5-hydroxytryptamine 1D receptor at concentration 1 uM; format: functional
Sequence (P28221 whole entry): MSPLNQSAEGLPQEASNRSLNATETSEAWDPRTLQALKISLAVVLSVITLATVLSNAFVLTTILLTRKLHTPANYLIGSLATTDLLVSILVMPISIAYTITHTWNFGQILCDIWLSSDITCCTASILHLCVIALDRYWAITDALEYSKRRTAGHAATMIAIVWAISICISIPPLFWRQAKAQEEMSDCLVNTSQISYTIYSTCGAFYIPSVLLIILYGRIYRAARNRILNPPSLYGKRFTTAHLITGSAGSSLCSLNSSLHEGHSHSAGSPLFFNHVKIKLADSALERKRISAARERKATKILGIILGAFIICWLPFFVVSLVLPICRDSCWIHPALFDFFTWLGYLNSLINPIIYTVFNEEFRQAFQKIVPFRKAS
Response under 40% gets true, anything at or over 40% gets false.

Query block: Input Cc1cc(C(C)(C)C)ccc1CC1=NCCN1 ; condition: Response strictly below 40%. Does it hold?
Result block: false

Query block: Is Response of Cc1cc(C(C)C)cc(C)c1CC1=NCCN1 strictly below 40%?
Result block: true

###

What follows is a record of Ki for 5-hydroxytryptamine receptor 1B (Homo sapiens).

Some compounds with known Ki results, for comparison:
compound=Cc1ccc(CC2=NCCN2)c(C)c1O observed_measurement="2 µM"
compound=COc1cccc(CC2=NCCN2)c1 observed_measurement="1.63 µM"
compound=Oc1cccc(CC2=NCCN2)c1 observed_measurement="3.74 µM"

Query block: Form: Entry = Cc1cccc(C)c1CC1=NCCN1 | System = 5-hydroxytryptamine receptor 1B (Homo sapiens) | Ki = ____
Result block: > 10 µM

Query block: State its Ki on 5-hydroxytryptamine receptor 1B (Homo sapiens): Cc1cc(C(C)(C)C)cc(C)c1CC1=NCCN1 [XYLOMETAZOLINE]
Result block: 0.014 µM

Query block: Find Ki (5-hydroxytryptamine receptor 1B (Homo sapiens)) for the entry Cc1ccc(O)c(C)c1CC1=NCCN1
Result block: 5.79 µM

Query block: Form: Entry = O=[N+]([O-])c1ccc(CC2=NCCN2)cc1 | System = 5-hydroxytryptamine receptor 1B (Homo sapiens) | Ki = ____
Result block: > 10 µM

Query block: What Ki appears in the records for this compound with 5-hydroxytryptamine receptor 1B (Homo sapiens)? CCCCc1ccc(CC2=NCCN2)cc1
Result block: > 10 µM

Query block: Lab note: need Ki for CCCc1ccc(CC2=NCCN2)cc1 on 5-hydroxytryptamine receptor 1B (Homo sapiens), anyone have it?
Result block: > 10 µM

Query block: Short answer please: Ki, 5-hydroxytryptamine receptor 1B (Homo sapiens), entry Cc1cc(C(C)(C)C)cc(C)c1CCN
Result block: > 10 µM

###

biological target: 5-hydroxytryptamine receptor 1B (Homo sapiens, UniProt P28222); test: Adenyl cyclase activity was expressed as percent forskolin response against 5-hydroxytryptamine 1B receptor at concentration 1 uM; format: functional
Sequence (P28222 whole entry): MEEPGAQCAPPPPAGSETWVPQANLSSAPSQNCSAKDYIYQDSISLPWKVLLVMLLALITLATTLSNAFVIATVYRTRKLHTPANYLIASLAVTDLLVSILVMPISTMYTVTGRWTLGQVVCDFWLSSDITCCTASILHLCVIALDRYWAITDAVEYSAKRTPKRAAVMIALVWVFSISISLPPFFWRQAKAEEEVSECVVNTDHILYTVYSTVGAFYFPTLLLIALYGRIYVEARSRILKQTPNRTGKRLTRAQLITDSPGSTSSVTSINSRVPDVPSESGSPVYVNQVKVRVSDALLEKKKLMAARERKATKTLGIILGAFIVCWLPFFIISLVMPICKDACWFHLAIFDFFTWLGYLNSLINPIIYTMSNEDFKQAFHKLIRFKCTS
# if value of Response reaches 60%, tag satisfied; if it stays below, tag not satisfied

These recorded examples may help you get a feel for the data.
smiles_representation=CC(C)(C)c1ccc(CC2=NCCN2)cc1 class_name=satisfied
smiles_representation=Cc1cc(C(C)(C)C)cc(C)c1CC1=NCCN1 class_name="not satisfied"
smiles_representation=Cc1cc(C)c(CC2=NCCN2)c(C)c1 class_name="not satisfied"
smiles_representation=Cc1cc(C(C)C)cc(C)c1CC1=NCCN1 class_name="not satisfied"
smiles_representation=Cc1cc(C(C)(C)C)c(O)c(C)c1CC1=NCCN1 class_name="not satisfied"

Please look at the following compound next.
Query block: Does the reported Response for Cc1cc(C(C)(C)C)ccc1CC1=NCCN1 fall at or above the 60% mark?
Result block: satisfied

###

molecular target: 5-hydroxytryptamine receptor 1D (Homo sapiens); experiment: Adenyl cyclase activity was expressed as percent forskolin response against 5-hydroxytryptamine 1D receptor at concentration 10 uM; assay type: functional
This listing pairs compounds with measured Response.

Field: example entries. Status: answers known.
smiles_representation=Cc1cc(C(C)C)cc(C)c1CC1=NCCN1 measured_target="5-hydroxytryptamine receptor 1D (Homo sapiens)" observed_measurement=34%
smiles_representation=Cc1cc(C(C)(C)C)ccc1CC1=NCCN1 measured_target="5-hydroxytryptamine receptor 1D (Homo sapiens)" observed_measurement=50%
smiles_representation=Cc1cc(C(C)(C)C)c(O)c(C)c1CC1=NCCN1 measured_target="5-hydroxytryptamine receptor 1D (Homo sapiens)" observed_measurement=35%
smiles_representation=CC(C)(C)c1ccc(CC2=NCCN2)cc1 measured_target="5-hydroxytryptamine receptor 1D (Homo sapiens)" observed_measurement=65%
smiles_representation=Cc1cc(C)c(CC2=NCCN2)c(C)c1 measured_target="5-hydroxytryptamine receptor 1D (Homo sapiens)" observed_measurement=49%

Query block: For the compound shown here, Cc1cc(C(C)(C)C)cc(C)c1CC1=NCCN1 , give the reported Response.
Result block: 41%
